# MEASURED ON: Serotonin 2 (5-HT2) receptor (Rattus norvegicus, UniProt P30994+P08909+P14842)
# ASSAY METHOD TEXT: The compound was tested in vitro for binding affinity towards 5-hydroxytryptamine 2 receptor by displacing [125]I-LSD radioligand
# Assay type: protein assay
Please go through the items and note down their log10(Ki).
Kindly note that the scale is log10 and the underlying Ki is in nM.

Exam item: Give the reported log10(Ki) for this molecule. O=C(CCCN1CCC2(CC1)C(=O)N(Cc1ccccc1)CN2c1ccccc1)c1ccc(F)cc1
Marked response: 0.51

Exam item: State its log10(Ki): CCCCCN1CN(c2ccccc2)C2(CCN(CCCC(=O)c3ccc(F)cc3)CC2)C1=O
Marked response: 0.04

Exam item: For the molecule Cc1ccccc1CN1CN(c2ccccc2)C2(CCN(CCCC(=O)c3ccc(F)cc3)CC2)C1=O , give its reported log10(Ki).
Marked response: 0.98

Exam item: Return reported log10(Ki). Input molecule: CC(C)CCN1CN(c2ccccc2)C2(CCN(CCCC(=O)c3ccc(F)cc3)CC2)C1=O
Marked response: 0.11

Exam item: Please give measured log10(Ki) of the following entry: CCN1CN(c2ccccc2)C2(CCN(CCCC(=O)c3ccc(F)cc3)CC2)C1=O
Marked response: -0.51

Exam item: Give me measured log10(Ki), please, for this molecule: O=C(CCCN1CCC2(CC1)C(=O)N(Cc1ccccc1I)CN2c1ccccc1)c1ccc(F)cc1
Marked response: 1.28

Exam item: Please report log10(Ki) for the following molecule: COc1ccc(CN2CN(c3ccccc3)C3(CCN(CCCC(=O)c4ccc(F)cc4)CC3)C2=O)cc1
Marked response: 1.08

Exam item: Please look at this molecule and report its log10(Ki): O=C(CCCN1CCC2(CC1)C(=O)N(Cc1cccc(F)c1)CN2c1ccccc1)c1ccc(F)cc1
Marked response: 0.72

Exam item: Give reported log10(Ki) value for O=C(CCCN1CCC2(CC1)C(=O)N(Cc1ccccc1[N+](=O)[O-])CN2c1ccccc1)c1ccc(F)cc1
Marked response: -0.17

###

# MEASURED ON: UniProt P61169
# ASSAY METHOD TEXT: Binding affinity towards Dopamine receptor D2 by displacing [3H]spiperone
Would you kindly list pKi for each of these compounds?
Give only the number. pKi is defined as minus log10 of concentration in molar units.

Exam item: Specify pKi for COc1ccc(CN2CN(c3ccccc3)C3(CCN(CCCC(=O)c4ccc(F)cc4)CC3)C2=O)cc1 , system UniProt P61169.
Marked response: 10.06

Exam item: Give pKi; test system UniProt P61169; compound O=C(CCCN1CCC2(CC1)C(=O)N(Cc1ccc([N+](=O)[O-])cc1)CN2c1ccccc1)c1ccc(F)cc1
Marked response: 9.92

Exam item: Give pKi for this entry on UniProt P61169: O=C(CCCN1CCC2(CC1)C(=O)N(Cc1ccccc1I)CN2c1ccccc1)c1ccc(F)cc1
Marked response: 10.20

Exam item: Supply pKi measured with UniProt P61169 for Cc1ccc(CN2CN(c3ccccc3)C3(CCN(CCCC(=O)c4ccc(F)cc4)CC3)C2=O)cc1 .
Marked response: 10.17

###

# MEASURED ON: D(2) dopamine receptor (Rattus norvegicus, UniProt P61169)
# Sequence (P61169 whole entry): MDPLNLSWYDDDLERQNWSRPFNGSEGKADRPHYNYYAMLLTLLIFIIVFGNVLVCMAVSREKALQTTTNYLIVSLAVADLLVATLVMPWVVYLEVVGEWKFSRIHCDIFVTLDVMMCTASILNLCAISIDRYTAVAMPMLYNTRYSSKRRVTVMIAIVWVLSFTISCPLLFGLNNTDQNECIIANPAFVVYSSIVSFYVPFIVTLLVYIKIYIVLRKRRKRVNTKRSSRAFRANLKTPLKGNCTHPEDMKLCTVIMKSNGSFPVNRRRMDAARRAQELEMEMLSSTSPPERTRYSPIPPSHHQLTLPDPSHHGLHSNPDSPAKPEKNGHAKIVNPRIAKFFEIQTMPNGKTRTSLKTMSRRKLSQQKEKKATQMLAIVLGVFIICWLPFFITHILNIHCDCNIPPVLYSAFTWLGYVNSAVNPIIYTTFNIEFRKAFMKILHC
# ASSAY METHOD TEXT: Binding affinity towards Dopamine receptor D2 by displacing [3H]spiperone
Task for the reader: assign each of the following molecules its reported pKi.
Scale note: pKi = -log10(concentration in M).

Exam item: Identify pKi associated with the molecule COc1ccccc1CN1CN(c2ccccc2)C2(CCN(CCCC(=O)c3ccc(F)cc3)CC2)C1=O
Marked response: 10.33

Exam item: Note down pKi recorded for CN1CN(c2ccccc2)C2(CCN(CCCC(=O)c3ccc(F)cc3)CC2)C1=O
Marked response: 9.93

Exam item: Dear colleague, please send me the reported pKi for O=C(CCCN1CCC2(CC1)C(=O)N(Cc1ccc(I)cc1)CN2c1ccccc1)c1ccc(F)cc1 when you can.
Marked response: 9.67

Exam item: Let me know recorded pKi for CCN1CN(c2ccccc2)C2(CCN(CCCC(=O)c3ccc(F)cc3)CC2)C1=O , thanks.
Marked response: 10.24

Exam item: Supply pKi value. Item: O=C(CCCN1CCC2(CC1)C(=O)N(Cc1ccccc1[N+](=O)[O-])CN2c1ccccc1)c1ccc(F)cc1
Marked response: 9.92

###

Assign Ki to each entry below.
# MEASURED ON: D(2) dopamine receptor (Rattus norvegicus, UniProt P61169)
# ASSAY METHOD TEXT: Displacement of [3H]spiperone from dopamine receptor D2
A number alone suffices; assume nM.

Exam item: Read off the recorded Ki for O=C(CCCN1CCC2(CC1)C(=O)N(Cc1ccccc1F)CN2c1ccccc1)c1ccc(F)cc1
Marked response: 0.043

Exam item: Return value of Ki for input CCCCCN1CN(c2ccccc2)C2(CCN(CCCC(=O)c3ccc(F)cc3)CC2)C1=O , no commentary.
Marked response: 0.062

Exam item: Output Ki of O=C(CCCN1CCC2(CC1)C(=O)N(Cc1ccccc1)CN2c1ccccc1)c1ccc(F)cc1
Marked response: 0.023

Exam item: Entry O=C(CCCN1CCC2(CC1)C(=O)N(Cc1ccc(F)cc1)CN2c1ccccc1)c1ccc(F)cc1 needs its Ki filled in; supply it.
Marked response: 0.069

Exam item: Could you please provide reported Ki for O=C(CCCN1CCC2(CC1)C(=O)N(CCc1ccccc1)CN2c1ccccc1)c1ccc(F)cc1 ? Thanks!
Marked response: 0.035

Exam item: Entry CC(C)CN1CN(c2ccccc2)C2(CCN(CCCC(=O)c3ccc(F)cc3)CC2)C1=O needs its Ki filled in; supply it.
Marked response: 0.039

Exam item: Tell us which Ki value is on record for CCCN1CN(c2ccccc2)C2(CCN(CCCC(=O)c3ccc(F)cc3)CC2)C1=O
Marked response: 0.029

Exam item: For the molecule CCCCN1CN(c2ccccc2)C2(CCN(CCCC(=O)c3ccc(F)cc3)CC2)C1=O , give its measured Ki value.
Marked response: 0.036

Exam item: Determine its reported Ki: Cc1ccccc1CN1CN(c2ccccc2)C2(CCN(CCCC(=O)c3ccc(F)cc3)CC2)C1=O
Marked response: 0.033

Exam item: Retrieve Ki measured for CC(C)CCN1CN(c2ccccc2)C2(CCN(CCCC(=O)c3ccc(F)cc3)CC2)C1=O and print it.
Marked response: 0.063

Exam item: Return value of Ki for input O=C(CCCN1CCC2(CC1)C(=O)N(Cc1cccc(F)c1)CN2c1ccccc1)c1ccc(F)cc1 , no commentary.
Marked response: 0.023

###

# MEASURED ON: Dopamine D2 receptor/Serotonin 2 (5-HT2) receptor (Rattus norvegicus) (UniProt P61169+P30994+P08909+P14842)
# Sequence (P08909 whole entry, looked up): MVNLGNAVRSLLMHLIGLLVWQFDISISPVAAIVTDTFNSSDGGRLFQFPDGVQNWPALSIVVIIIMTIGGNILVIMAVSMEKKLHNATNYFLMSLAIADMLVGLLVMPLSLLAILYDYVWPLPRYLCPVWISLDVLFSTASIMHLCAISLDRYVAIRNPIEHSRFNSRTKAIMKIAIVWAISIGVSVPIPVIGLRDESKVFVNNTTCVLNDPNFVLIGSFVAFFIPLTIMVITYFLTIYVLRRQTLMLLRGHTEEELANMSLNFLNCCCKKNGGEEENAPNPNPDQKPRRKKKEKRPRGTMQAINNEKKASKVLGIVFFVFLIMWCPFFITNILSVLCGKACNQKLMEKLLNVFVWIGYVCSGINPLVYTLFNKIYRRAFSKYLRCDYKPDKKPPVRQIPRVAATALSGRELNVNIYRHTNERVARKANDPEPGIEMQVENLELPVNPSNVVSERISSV
# Sequence (P14842 whole entry, looked up): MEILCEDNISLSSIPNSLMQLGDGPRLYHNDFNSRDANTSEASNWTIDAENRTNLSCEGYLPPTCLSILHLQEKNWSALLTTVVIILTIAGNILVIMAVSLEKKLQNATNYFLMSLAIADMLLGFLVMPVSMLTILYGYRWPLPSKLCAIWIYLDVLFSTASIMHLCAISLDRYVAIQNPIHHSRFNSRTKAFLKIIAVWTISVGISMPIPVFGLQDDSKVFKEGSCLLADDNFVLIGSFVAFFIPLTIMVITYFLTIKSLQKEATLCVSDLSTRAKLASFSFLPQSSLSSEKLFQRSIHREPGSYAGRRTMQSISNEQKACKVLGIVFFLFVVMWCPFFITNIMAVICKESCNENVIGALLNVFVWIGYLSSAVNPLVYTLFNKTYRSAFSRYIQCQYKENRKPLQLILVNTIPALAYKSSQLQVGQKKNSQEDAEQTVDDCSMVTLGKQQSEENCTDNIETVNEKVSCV
# Sequence (P30994 whole entry, looked up): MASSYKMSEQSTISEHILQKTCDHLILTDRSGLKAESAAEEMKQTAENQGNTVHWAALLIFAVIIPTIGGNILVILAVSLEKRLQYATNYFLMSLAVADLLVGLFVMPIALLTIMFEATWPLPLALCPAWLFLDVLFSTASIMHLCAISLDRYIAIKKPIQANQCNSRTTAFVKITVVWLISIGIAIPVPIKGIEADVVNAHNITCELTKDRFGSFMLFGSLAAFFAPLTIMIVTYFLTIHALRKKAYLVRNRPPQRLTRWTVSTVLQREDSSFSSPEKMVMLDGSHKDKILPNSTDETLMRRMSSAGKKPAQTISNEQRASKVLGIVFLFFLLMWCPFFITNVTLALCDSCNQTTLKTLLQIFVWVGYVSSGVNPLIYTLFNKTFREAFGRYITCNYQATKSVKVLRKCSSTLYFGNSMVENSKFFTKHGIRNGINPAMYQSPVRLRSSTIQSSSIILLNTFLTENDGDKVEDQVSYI
# Sequence (P61169 whole entry, looked up): as the sequence (P61169 whole entry) above
# ASSAY METHOD TEXT: Relative binding affinity for dopamine D2 and 5-HT2 receptors
# Format: protein assay
Consider the following molecules; for each one, report its Ratio.
Respond numerically, and do not add a unit to the figure.

Exam item: Indicate the recorded Ratio value for this molecule: O=C(CCCN1CCC2(CC1)C(=O)N(Cc1cccc(F)c1)CN2c1ccccc1)c1ccc(F)cc1
Marked response: 230

Exam item: Give the measured Ratio for CC(C)CCN1CN(c2ccccc2)C2(CCN(CCCC(=O)c3ccc(F)cc3)CC2)C1=O
Marked response: 21

Exam item: State its Ratio: CCCN1CN(c2ccccc2)C2(CCN(CCCC(=O)c3ccc(F)cc3)CC2)C1=O
Marked response: 3.3

Exam item: Read the entry O=C(CCCN1CCC2(CC1)C(=O)N(Cc1ccc(F)cc1)CN2c1ccccc1)c1ccc(F)cc1 and write its reported Ratio.
Marked response: 300

Exam item: Query Ratio for CCCCN1CN(c2ccccc2)C2(CCN(CCCC(=O)c3ccc(F)cc3)CC2)C1=O
Marked response: 11

Exam item: Quickly give me recorded Ratio for O=C(CCCN1CCC2(CC1)C(=O)N(CCc1ccccc1)CN2c1ccccc1)c1ccc(F)cc1
Marked response: 29

Exam item: Quickly give me recorded Ratio for Cc1ccccc1CN1CN(c2ccccc2)C2(CCN(CCCC(=O)c3ccc(F)cc3)CC2)C1=O
Marked response: 290

Exam item: Annotate the molecule O=C(CCCN1CCC2(CC1)C(=O)N(Cc1ccccc1)CN2c1ccccc1)c1ccc(F)cc1 with its measured Ratio.
Marked response: 140

Exam item: Retrieve Ratio measured for O=C(CCCN1CCC2(CC1)C(=O)N(Cc1ccccc1F)CN2c1ccccc1)c1ccc(F)cc1 and print it.
Marked response: 100

Exam item: Given the molecule CC(C)CN1CN(c2ccccc2)C2(CCN(CCCC(=O)c3ccc(F)cc3)CC2)C1=O , write its reported Ratio.
Marked response: 3.3

Exam item: For CCCCCN1CN(c2ccccc2)C2(CCN(CCCC(=O)c3ccc(F)cc3)CC2)C1=O , write its Ratio.
Marked response: 18

###

# MEASURED ON: Serotonin 2 (5-HT2) receptor (Rattus norvegicus, UniProt P30994+P08909+P14842)
# ASSAY METHOD TEXT: The compound was tested in vitro for binding affinity towards 5-hydroxytryptamine 2 receptor by displacing [125]I-LSD radioligand
# Assay type: protein assay
VALUE KIND: Ki (nM)
The figure you give is taken to be in nM; do not add the unit.

Exam item: Return Ki (reported value) for this compound: Cc1ccc(CN2CN(c3ccccc3)C3(CCN(CCCC(=O)c4ccc(F)cc4)CC3)C2=O)cc1
Marked response: 37

Exam item: Name the recorded Ki of the compound listed here: COc1ccccc1CN1CN(c2ccccc2)C2(CCN(CCCC(=O)c3ccc(F)cc3)CC2)C1=O
Marked response: 1.9

Exam item: Dear colleague, please send me the reported Ki for CN1CN(c2ccccc2)C2(CCN(CCCC(=O)c3ccc(F)cc3)CC2)C1=O when you can.
Marked response: 0.55

Exam item: Using the record for CCCN1CN(c2ccccc2)C2(CCN(CCCC(=O)c3ccc(F)cc3)CC2)C1=O , state its measured Ki.
Marked response: 0.096

Exam item: Give the measured Ki for O=C(CCCN1CCC2(CC1)C(=O)N(Cc1ccccc1F)CN2c1ccccc1)c1ccc(F)cc1
Marked response: 4.4

Exam item: Consider the compound O=C(CCCN1CCC2(CC1)C(=O)N(Cc1ccc(I)cc1)CN2c1ccccc1)c1ccc(F)cc1 . State its measured Ki.
Marked response: 89

Exam item: Identify Ki associated with the compound O=C(CCCN1CCC2(CC1)C(=O)N(Cc1ccc(F)cc1)CN2c1ccccc1)c1ccc(F)cc1
Marked response: 21

Exam item: Identify the reported Ki for the following entry. CCCCN1CN(c2ccccc2)C2(CCN(CCCC(=O)c3ccc(F)cc3)CC2)C1=O
Marked response: 0.41

Exam item: For the compound O=C(CCCN1CCC2(CC1)C(=O)N(CCc1ccccc1)CN2c1ccccc1)c1ccc(F)cc1 , report Ki.
Marked response: 1

Exam item: Provide one value: measured Ki of CC(C)CN1CN(c2ccccc2)C2(CCN(CCCC(=O)c3ccc(F)cc3)CC2)C1=O
Marked response: 0.13

Exam item: For the compound O=C(CCCN1CCC2(CC1)C(=O)N(Cc1ccc([N+](=O)[O-])cc1)CN2c1ccccc1)c1ccc(F)cc1 , give its measured Ki value.
Marked response: 14

Data credit: ChEMBL document CHEMBL1125573
